Taken from PubChem BioAssay (NCI).

TGI values by entry
system: SNB-19 CNS; assay: NCI tumour cell line growth inhibition, 48 h

# molecule, TGI
data = [
    ("Fc1ccc(Oc2nc3ccc(C(F)(F)F)cc3nc2-c2ccccc2)cc1", "> 100 µM"),
    ("COc1ccc(/C=C2\\CCC(CNc3ccc(S(N)(=O)=O)cc3)C2=O)cc1 (stereo not given)", "> 65.9 µM"),
    ("COc1ccc(-c2nn(-c3cccc(Cl)c3)cc2-c2cc(-c3cccs3)[nH]c(=S)n2)cc1", "> 100 µM"),
    ("O=C1Nc2ccccc2C1=Nc1cccc2ncccc12", "> 100 µM"),
    ("CC(C)Cn1cnc2c(SCc3ccc(Cl)cc3Cl)nc(N)nc21", "> 100 µM"),
    ("CCCCCCCCNc1cc2c3c(c1)CCCN3CCC2", "19.4 µM"),
    ("O=C(O)CN(CC(=O)O)Cc1cc(C#Cc2ccc(C#Cc3ccccc3)cc2)cc(CN(CC(=O)O)CC(=O)O)n1", "> 77 µM"),
    ("CCCCCC(C/C=N/N(C)C)C(O)(C(F)(F)F)C(F)(F)F (stereo not given)", "> 100 µM"),
    ("CCc1ccccc1NC(=O)C1=C(C)NC(C)=C(C(=O)Nc2ccccc2CC)C1c1ccccc1Cl", "> 100 µM"),
    ("CCN(CC)CCNc1ccc2nnn3c4ccc(C)cc4c(=O)c1c23", "27.4 µM"),
]

---

tested on: BT-549 breast; test: NCI tumour cell line growth inhibition, 48 h; in the data active = GI50 below about 0.43 µM; inactive = the rest
Where a SMILES comes first, the peptide text is derived from it. [ ]: non-standard residue; d: D form. pGlu = O=C1CC[CH](C(=O)O)N1
Outcome codes: true (1) = active, false (0) = inactive

# compound, system-under-test, classification
data = [
    ("CCN1C(=O)N(CC)C2C1NN=c1s/c(=C\\c3cccc(F)c3)c(=O)n12 (centres undefined)", "BT-549 breast", "true (1)"),
    ("CCN(Cc1ccc(Cl)cc1)c1ccc(CO)c(Cl)c1", "BT-549 breast", "false (0)"),
    ("CCNC(=O)C1CCCN1C(=O)C(CCCN=C(N)N)NC(=O)C(CC(C)C)NC(=O)C(CC(C)C)NC(=O)C(Cc1ccc(O)cc1)NC(=O)C(CO)NC(=O)C(Cc1c[nH]c2ccccc12)NC(=O)C(Cc1cnc[nH]1)NC(=O)C1CCC(=O)N1 (centres undefined) ([pGlu]HWSYLLRP-NHEt; configuration not given here)", "BT-549 breast", "false (0)"),
    ("N#Cc1ccc(OCc2nc(N)nc(N)c2-c2ccc(Cl)c(Cl)c2)cc1", "BT-549 breast", "false (0)"),
    ("Clc1nc(Cl)c2ncn(CC3(Cn4cnc5c(Cl)nc(Cl)nc54)COC3)c2n1", "BT-549 breast", "false (0)"),
    ("N=C1C(c2nc3ccccc3s2)=C(O)CN1c1ccc(F)c(Cl)c1", "BT-549 breast", "false (0)"),
    ("OC(Cc1ccncc1)C(Cl)(Cl)Cl (centres undefined)", "BT-549 breast", "false (0)"),
    ("C/C=C(\\C)C(=O)NC1=CC[C@@]2(C)C(=CCC3C2CC[C@@]2(C)C3CC[C@@H]2C(C)N(C)C)C1=O (some centres undefined)", "BT-549 breast", "false (0)"),
    ("O=C1C(Cl)=C(Nc2cccc(F)c2)C(=O)N1Cc1ccc(Cl)cc1", "BT-549 breast", "false (0)"),
    ("CCN(Cc1cc(Nc2nc(C)cn3c(-c4cn[nH]c4)cnc23)sn1)C(C)(C)CO", "BT-549 breast", "true (1)"),
    ("CCOC(=O)/C(C=Nc1ccc(-c2nc3ccccc3[nH]2)cc1)=C(/C)O", "BT-549 breast", "false (0)"),
    ("COc1ccc(C(=S)N2CCN(c3cccc(C)c3)CC2)cc1OC", "BT-549 breast", "false (0)"),
    ("CC(=O)NC1C(OC[C@@H](CC(=O)N[C@@H](CC(=O)O)CC(=O)N[C@H](CC(=O)N[C@@H](CCCN)CC(=O)N[C@@H](CCCN)CC(=O)N[C@H](CC(N)=O)C(C)C)C(C)C)NC(=O)C[C@@H](N)C(C)C)OC(CO)C(O)C1O (some centres undefined)", "BT-549 breast", "false (0)"),
    ("C[C@]12CC[C@@H]3c4ccc(OC(=O)N(CCCl)CCCl)cc4CC[C@H]3[C@@H]1CC[C@@H]2O", "BT-549 breast", "false (0)"),
]

---

system: SF-539 CNS; assay: NCI tumour cell line growth inhibition, 48 h
Where a SMILES comes first, the peptide text is derived from it. [ ]: non-standard residue; d: D form. pGlu = O=C1CC[CH](C(=O)O)N1

# compound, GI50
measured = [
    ("COC(=O)c1ccc(-c2nc3cc(Cl)c(Cl)cc3nc2C#N)cc1", "> 100 µM"),
    ("Fc1ccc(C2CC(c3cccc(Nc4ccncc4)c3)=NN2c2ccc(Cl)cc2)cc1 (stereo unspecified)", "1.65 µM"),
    ("CC1(C)C2CCC13C(=O)C1OC3(C2)C2C(=O)c3cc4ccccc4cc3C(=O)C12 (stereo unspecified)", "40.1 µM"),
    ("CCN1C(=O)N(CC)C2C1NN=c1s/c(=C\\c3cccc(F)c3)c(=O)n12 (stereo unspecified)", "0.0804 µM"),
    ("N.N.N.N.N.NC(=O)c1nn[n-]n1.[Cl-].[Co+3]", "> 100 µM"),
    ("C=C(C)C(O)CCC1(C)C=Cc2c(c(C)cc3c2[nH]c2ccccc23)O1 (stereo unspecified)", "3.64 µM"),
    ("C[C@H](NC(=O)[C@@H](C)N)[C@H](Oc1ccc2c(cnn2-c2ccc(F)cc2)c1)c1ccc2c(c1)OCCO2", "1.65 µM"),
    ("C=CCN=c1sc2c(n1NC(=O)c1cc3ccc1CCc1ccc(cc1)CC3)C(=O)c1ccccc1C2=O", "1.69 µM"),
    ("N=C1C(c2nc3ccccc3s2)=C(O)CN1c1ccc(F)c(Cl)c1", "8.36 µM"),
    ("COc1cccc(N2CCN(CC(=O)N3CCN(c4nnc(-c5ccc(Cl)cc5)c(-c5ccc(Cl)cc5)n4)CC3)CC2)c1", "11.5 µM"),
    ("CCNC(=O)C1CCCN1C(=O)C(CCCN=C(N)N)NC(=O)C(CC(C)C)NC(=O)C(CC(C)C)NC(=O)C(Cc1ccc(O)cc1)NC(=O)C(CO)NC(=O)C(Cc1c[nH]c2ccccc12)NC(=O)C(Cc1cnc[nH]1)NC(=O)C1CCC(=O)N1 (stereo unspecified) ([pGlu]HWSYLLRP-NHEt; configuration not given here)", "> 100 µM"),
    ("CCOC(=O)N1CCN(/[N+]([O-])=N/Oc2ccc([N+](=O)[O-])cc2[N+](=O)[O-])CC1", "0.424 µM"),
    ("CCN(Cc1cc(Nc2nc(C)cn3c(-c4cn[nH]c4)cnc23)sn1)C(C)(C)CO", "0.0179 µM"),
    ("O=c1[nH]nnc2c1ncn2C1OC(CO)C(O)C1O (stereo unspecified)", "14.5 µM"),
    ("CC[C@@H]1c2c(C#N)ncn2-c2cnc(Nc3ccc(C(=O)NC4CCN(C5CCN(CC6CC6)CC5)CC4)cc3OC)nc2N1C1CCCC1", "0.0493 µM"),
    ("NS(=O)(=O)c1ccc(-n2nc(-c3ccc(Cl)cc3)cc2-c2cc(O)ccc2O)cc1", "25.4 µM"),
]

---

tested on: HCT-15 colon; experiment: NCI tumour cell line growth inhibition, 48 h

# compound, system-under-test, TGI
rows = [
    ("C=CCOc1cc(NC(=S)c2ccoc2C)ccc1OC", "HCT-15 colon", "> 100 µM"),
    ("NCCCOc1ccc([N+](=O)[O-])cc1Cl", "HCT-15 colon", "> 100 µM"),
    ("CC12O[C@]3([C@H](C(=O)N4CCOC43C)[C@H]1Cl)[C@H]1O[C@H]12 (some centres undefined)", "HCT-15 colon", "> 100 µM"),
    ("C=C1C(=O)O[C@H]2[C@H]1CC/C(CNC(=O)/C=C/c1cc(OC)c(OC)c(OC)c1)=C\\CC[C@@]1(C)O[C@@H]21", "HCT-15 colon", "13.5 µM"),
    ("CN(CCNC(=O)c1nn(-c2ccccc2)c2c1Cc1ccccc1-2)CCNC(=O)c1nn(-c2ccccc2)c2c1Cc1ccccc1-2", "HCT-15 colon", "3.67 µM"),
    ("CCOC(=O)c1nn2c(nc1=O)sc1ccc3ccccc3c12", "HCT-15 colon", "> 100 µM"),
    ("CC[C@@]1(O)C(=O)OCc2c1cc1n(c2=O)Cc2c-1nc1ccccc1c2/C=N\\NC(=O)C(N)CO (some centres undefined)", "HCT-15 colon", "> 100 µM"),
    ("C[C@@]1(O)C[C@@H](N2C(=O)O[C@@H](c3ccccc3)[C@H]2c2ccccc2)[C@@H]1COCc1ccccc1", "HCT-15 colon", "84.3 µM"),
    ("Cc1c(C)c(C)c(-n2c(=O)n(C)c(=O)n2-n2c(=O)n(C)c(=O)n2-c2c(C)c(C)c(C)c(C)c2C)c(C)c1C", "HCT-15 colon", "> 100 µM"),
]
